Listing of recorded cytotoxicity at 10 µM by entry.
Test Description: Toxicity liver stage against HepG2, at 10uM
Type: cell-based
Parameters: test concentration 10 uM, cell line HepG2-A16-CD81EGFP
Run Conditions: human, HepG2-A16-CD81EGFP cells; read-out: INHIBITION
Reply numerically in %, unit not repeated.

Compound: CCCn1ccnc1-c1cccc(NC2CCOC2)c1 (centres undefined)
Measured Attribute: cytotoxicity at 10 µM
Recorded Number: -3.1
//
Compound: CSc1nc2cc(C)n(CC(=O)Nc3nccs3)c2c(=O)n1CC(C)C
Measured Attribute: cytotoxicity at 10 µM
Recorded Number: -12.6
//
Compound: Cc1csc(C2(NCc3nnc(-c4ccco4)o3)CCCC2)n1
Measured Attribute: cytotoxicity at 10 µM
Recorded Number: 0.416
//
Compound: Cc1cc(-c2cnc(NCc3ccc4c(c3)OCO4)nc2C(C)C)on1
Measured Attribute: cytotoxicity at 10 µM
Recorded Number: -1.23

# evaluate next
Give cytotoxicity at 10 µM for CN(C)Cc1ccccc1CN(C)C(=O)c1ccoc1
-11.8

Recorded values, source ChEMBL document CHEMBL4513216.
